All figures here come from patent US20240228489A1.

Target: human mAChR M1 (Homo sapiens, UniProt P11229)
Sequence (P11229 whole entry): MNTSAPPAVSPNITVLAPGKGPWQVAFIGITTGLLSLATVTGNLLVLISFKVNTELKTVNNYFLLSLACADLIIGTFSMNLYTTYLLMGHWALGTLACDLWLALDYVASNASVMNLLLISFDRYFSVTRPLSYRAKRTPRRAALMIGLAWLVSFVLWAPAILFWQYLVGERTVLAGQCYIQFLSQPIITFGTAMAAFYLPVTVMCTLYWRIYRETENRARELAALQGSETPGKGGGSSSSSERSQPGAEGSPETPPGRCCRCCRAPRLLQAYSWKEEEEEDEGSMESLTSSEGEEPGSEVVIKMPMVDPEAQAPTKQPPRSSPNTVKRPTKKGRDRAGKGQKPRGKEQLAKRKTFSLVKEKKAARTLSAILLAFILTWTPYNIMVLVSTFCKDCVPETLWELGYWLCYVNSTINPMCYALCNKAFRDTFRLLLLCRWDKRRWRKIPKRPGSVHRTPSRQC
Assay: mAChR M1 cell-based functional assay (calcium mobilization), agonist mode: compound alone, Emax relative to acetylcholine maximum
Conditions: human mAChR M1
Method: Chinese hamster ovary (CHO-K1) cells stably expressing rat (r)M1 were purchased from the American Type Culture Collection and cultured according to their indicated protocol. […] Calcium flux was measured using the Functional Drug Screening System (FDSS) 6000 (Hamamatsu Corporation, Tokyo, Japan) as an increase in the fluorescent static ratio. […] Agonist activity was analyzed as a concentration-dependent increase in calcium mobilization upon compound addition. […]
observable: EC50

Some compounds with recorded EC50:
smilesStr | measurement
[2H]C1([2H])c2ncccc2C(=O)N1Cc1c(F)cc(-c2cccc3nn(CF)cc23)cc1F | > 10 µM
[2H]C1([2H])c2ncccc2C(=O)N1Cc1ccc(-c2ccc(OCCOC)c3nn(C([2H])([2H])[2H])cc23)cc1F | ≥ 10 µM

Now turn to the next compound.
Kindly note the recorded EC50 for `[2H]C1([2H])c2ncccc2C(=O)N1Cc1c(C)cc(-c2ccc(C)c3nn(C)cc23)cc1F` , which is ≥ 10 µM

====

Target: human mAChR M1 (Homo sapiens, UniProt P11229)
Assay: mAChR M1 cell-based functional assay (calcium mobilization), agonist mode: compound alone, Emax relative to acetylcholine maximum
Details: relative to the maximum for acetylcholine
Reported values of Emax for individual entries
Supply the numeric figure in %, leaving out any unit text.

The examples below pair each entry with its known result.
smilesStr | observable | measurement
[2H]C1([2H])c2ncccc2C(=O)N1Cc1c(F)cc(-c2ccc(OCC3CN(C(=O)OC(C)(C)C)C3)c3nn(C)cc23)cc1F | Emax | 1
[2H]C1([2H])c2ncccc2C(=O)N1Cc1c(C)cc(-c2ccc(OCCOC)c3nn(C)cc23)cc1F | Emax | 27

Shift focus to the following entry.
Entry `[2H]C1([2H])c2ncccc2C(=O)N1Cc1c(F)cc(-c2ccn3ccnc3c2)cc1F` , human mAChR M1 (Homo sapiens, UniProt P11229) data, Emax value: 2
